Assay: Caspase-3/7 induction in CHO-K1 cells by small molecules, qHTS assay (AID 1346980); also: nearly all actives have a fitted effect of over 15% in size
Details: CHO-K1 caspase-3/7 induction, Caspase-Glo luminescence, 17 h; series mostly up to 92.4 µM
Text: National Center for Advancing Translational Sciences [NCATS] NIH Chemical Genomics Center [NCGC] U.S. Environmental Protection Agency [EPA] National Institutes of Environmental Health Sciences [NIEHS] National Toxicology Program [NTP] Apoptosis is a process of programmed cell death and plays a central role in the development of multicellular organisms. […]
Active and inactive are the calls of the source. Calls follow the shape of the dose curve; as a rule, active = well fitted activation curve with a large enough effect in the repeat runs; inconclusive = weak or mixed curves; inactive = flat fitted curve, though single readings scatter.
The categories you may choose from are active, inactive

As a guide, the following entries are already answered.
COMPOUND	GROUP
CC(C)(C)CC(C)(C)c1ccc(O)cc1	active
Oc1cccc(Cl)c1	inactive
O=[N+]([O-])/C=C/c1ccccc1	inactive
FC(F)OC(F)(F)C(F)Cl (centres undefined)	inactive
O=C(O)C(F)(F)C(F)(F)C(F)(F)C(F)(F)C(F)(F)F	inactive

How did this test come out for CCCC(C)(COC(N)=O)COC(=O)NC(C)C (centres undefined) ?
inactive

How did this test come out for CCOC(C(=O)OCCN(C)C)(c1ccccc1)c1ccccc1 ?
inactive

How did this test come out for CN1CC[C@]23c4c5ccc(O)c4O[C@H]2[C@@H](O)C=C[C@H]3[C@H]1C5 ?
inactive

How did this test come out for O=C(O)CCCOc1ccc(Cl)cc1Cl ?
inactive

How did this test come out for CCCCC(CC)CO[N+](=O)[O-] (centres undefined) ?
inactive

How did this test come out for C=CCOCC1CO1 (centres undefined) ?
inactive

How did this test come out for CN(C)N ?
inactive

How did this test come out for CC(C)(c1ccccc1)c1cc(-n2nc3ccccc3n2)c(O)c(C(C)(C)c2ccccc2)c1 ?
inactive

How did this test come out for [Cl-].[Cl-].[Hg+2] ?
inactive

How did this test come out for Clc1ccc(Cl)c(Cl)c1 ?
inactive

How did this test come out for CC(C)CCON=O ?
inactive

How did this test come out for CC(C)(C)OOC(C)(C)CCC(C)(C)OOC(C)(C)C ?
inactive

How did this test come out for CCC1(CC)C(=O)NC(=O)NC1=O ?
inactive

How did this test come out for C[CH2][Hg][S]c1ccccc1C(=O)O ?
inactive
